# target of assay: UniProtKB Q9NYK1
# test details: TLR7 inhibition reporter assay (HEK-Blue SEAP)
# assay setup: HEK-Blue cells overexpressing human TLR7, stimulated with gardiquimod 7.5 μM, 22 hour incubation
readout label: IC50 (nM)
The response must be a number in nM with no trailing unit.

Cc1cc(-c2[nH]c3ccc(OCCN4CCOCC4)cc3c2C(C)C)ccn1 [Example 175]
439
Cc1cc(-c2[nH]c3ccc(OC4CCC(OC5CCNCC5)CC4)cc3c2C(C)C)ccn1 (centres unmarked) [Example 185]
50.2
Cc1cc(-c2[nH]c3ccc(OC4CCN(C(C)C)CC4)cc3c2C(C)C)cc(C)n1 [Example 31]
2.9
CCc1c(-c2ccc(OC)c(OC)c2)[nH]c2ccc(OCC3CCNCC3)cc12 [Example 162]
105
Cc1cc(-c2[nH]c3ccc(OCc4ccncc4)cc3c2C(C)C)ccn1 [Example 174]
3590

Suppose we examine the molecule Cc1cc(-c2[nH]c3ccc(OCC4CN(C)C4)cc3c2C(C)C)cn2ncnc12 [Example 59] ; what IC50 value has been reported? 0.5

Suppose we examine the molecule Cc1c(-c2[nH]c3ccc(OC4CCN(C(C)C)CC4)cc3c2C(C)C)cn(C)c(=O)c1C [Example 48] ; what IC50 value has been reported? 6.9

Suppose we examine the molecule COc1ccc(-c2[nH]c3ccc(OCC(=O)NC4CCCC(N)C4)cc3c2C(C)C)cc1OC (centres unmarked) [Example 128] ; what IC50 value has been reported? 62.1

Suppose we examine the molecule Cc1cc(-c2[nH]c3ccc(OC4CCN(C(=O)CN(C)C)CC4)cc3c2C(C)C)cn(C)c1=O [Example 100] ; what IC50 value has been reported? 4.1

Suppose we examine the molecule Cc1cc(-c2[nH]c3ccc(OCc4ccc(N5CCOCC5)cc4)cc3c2C(C)C)ccn1 [Example 168] ; what IC50 value has been reported? 4930

Suppose we examine the molecule Cc1cc(-c2[nH]c3ccc(OCC(=O)N4CC5CNCC5C4)cc3c2C(C)C)ccn1 (centres unmarked) [Example 145] ; what IC50 value has been reported? 315

Suppose we examine the molecule CCc1c(-c2ccc(OC)c(OC)c2)[nH]c2ccc(OC3CCN(C4CCN(CC(C)C)CC4)CC3)cc12 [Example 118] ; what IC50 value has been reported? 380

Suppose we examine the molecule Cc1cc(-c2[nH]c3ccc(OCC(=O)NCC(C)(C)O)cc3c2C(C)C)ccn1 [Example 151] ; what IC50 value has been reported? 404

Suppose we examine the molecule Cc1cc(-c2[nH]c3ccc(OCC(=O)N4CC5(CCNCC5)C4)cc3c2C(C)C)ccn1 [Example 141] ; what IC50 value has been reported? 427

Suppose we examine the molecule Cc1cc(-c2[nH]c3ccc(OCC4CCN(CCO)CC4)cc3c2C(C)C)cc(C)n1 [Example 71] ; what IC50 value has been reported? 3.8

Suppose we examine the molecule Cc1cc(-c2[nH]c3ccc(O[C@H]4CCCN(C)C4)cc3c2C(C)C)cn(C)c1=O [Example 37] ; what IC50 value has been reported? 12.8

====

# target of assay: human TLR7 (Homo sapiens, UniProt Q9NYK1)
# test details: TLR7 inhibition reporter assay (HEK-Blue SEAP)
# assay setup: HEK-Blue cells overexpressing human TLR7, stimulated with gardiquimod 7.5 μM, 22 hour incubation
pIC50: −log10 of the molar value.
Label 1 (yes) when pIC50 is at or above 8; anything below gets 0 (no).

Cc1cc(-c2[nH]c3ccc(OC4CCCNC4)cc3c2C(C)C)ccn1 (stereo not shown) [Example 177]
0 (no)

API: above_or_equal(metric=pIC50, cutoff=8) for item Cc1cc(-c2[nH]c3ccc(OC4CCN(CC(C)C)CC4)cc3c2C(C)C)cn2ncnc12 [Example 77] 1 (yes)

API: above_or_equal(metric=pIC50, cutoff=8) for item Cc1cc(-c2[nH]c3ccc(OCC4CCCNC4)cc3c2C(C)C)cc(C)n1 (stereo not shown) [Example 94] 1 (yes)

API: above_or_equal(metric=pIC50, cutoff=8) for item Cc1cc(-c2[nH]c3ccc(OCC4CCN(C(=O)CN(C)C)CC4)cc3c2C(C)C)cc(C)n1 [Example 96] 1 (yes)

API: above_or_equal(metric=pIC50, cutoff=8) for item Cc1cc(-c2[nH]c3ccc(OCC(=O)NC4CCC5CNCC54)cc3c2C(C)C)ccn1 (stereo not shown) [Example 142] 0 (no)

API: above_or_equal(metric=pIC50, cutoff=8) for item COc1ccc(-c2[nH]c3ccc(OCC(=O)N(C)C4CN5CCC4CC5)cc3c2C(C)C)cc1OC (stereo not shown) [Example 121] 0 (no)

====

Recorded measurements of log10 IC50, one per entry
# target of assay: human TLR9 (Homo sapiens, UniProt Q9NR96)
# Construct: host or cells: HEK-Blue cells
# Sequence (Q9NR96 26-1032): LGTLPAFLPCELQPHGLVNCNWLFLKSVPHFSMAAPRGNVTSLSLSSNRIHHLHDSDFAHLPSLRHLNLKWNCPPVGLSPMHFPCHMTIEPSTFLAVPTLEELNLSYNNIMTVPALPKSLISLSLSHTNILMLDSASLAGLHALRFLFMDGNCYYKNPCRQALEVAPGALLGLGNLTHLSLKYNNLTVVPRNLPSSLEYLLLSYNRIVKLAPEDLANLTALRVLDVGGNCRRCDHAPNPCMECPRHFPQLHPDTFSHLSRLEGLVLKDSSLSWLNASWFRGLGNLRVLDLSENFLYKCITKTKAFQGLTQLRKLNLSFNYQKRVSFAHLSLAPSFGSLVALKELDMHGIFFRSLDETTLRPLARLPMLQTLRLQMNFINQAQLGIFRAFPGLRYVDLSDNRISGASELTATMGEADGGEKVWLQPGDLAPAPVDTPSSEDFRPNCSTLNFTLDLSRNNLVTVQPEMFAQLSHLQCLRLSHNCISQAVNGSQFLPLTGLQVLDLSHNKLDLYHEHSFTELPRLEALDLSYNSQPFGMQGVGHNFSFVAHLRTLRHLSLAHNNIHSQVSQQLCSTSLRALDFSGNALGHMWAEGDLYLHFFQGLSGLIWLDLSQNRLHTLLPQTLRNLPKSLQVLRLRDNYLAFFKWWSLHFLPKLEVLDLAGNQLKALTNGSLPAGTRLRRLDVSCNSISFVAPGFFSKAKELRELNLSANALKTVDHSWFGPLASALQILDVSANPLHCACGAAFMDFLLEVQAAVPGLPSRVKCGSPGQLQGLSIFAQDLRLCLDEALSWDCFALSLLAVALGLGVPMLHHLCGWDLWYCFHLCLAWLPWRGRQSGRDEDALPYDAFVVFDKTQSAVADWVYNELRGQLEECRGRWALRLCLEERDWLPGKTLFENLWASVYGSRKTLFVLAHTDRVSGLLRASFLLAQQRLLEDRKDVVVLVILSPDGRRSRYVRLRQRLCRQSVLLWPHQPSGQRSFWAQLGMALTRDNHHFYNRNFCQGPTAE
# test details: TLR9 inhibition reporter assay (HEK-Blue SEAP)
# Type: cell-based
# assay setup: HEK-Blue cells overexpressing human TLR9, stimulated with ODN2006 5 nM, 22 hour incubation
Values are log10 of IC50 in µM.

Consider the worked cases shown below.
Cc1c(-c2[nH]c3ccc(OCC4CCN(CC(=O)N(C)C)CC4)cc3c2C(C)C)cn(C)c(=O)c1C
1.18
Cc1cc(-c2[nH]c3ccc(OCCN4CCCC4)cc3c2C(C)C)ccn1
-0.01
COc1ccc(-c2[nH]c3ccc(O[C@H]4CCNC4)cc3c2C(C)C)cc1OC
0.03
Cc1c(-c2[nH]c3ccc(OCC4CCN(C(=O)CN(C)C)CC4)cc3c2C(C)C)cn(C)c(=O)c1C
0.73
Cc1cc(-c2[nH]c3ccc(OC4CCCN(CC(=O)N(C)C)C4)cc3c2C(C)C)cn(C)c1=O (centres unmarked)
1.23
Cc1c(-c2[nH]c3ccc(OCC4CCN(C5COC5)CC4)cc3c2C(C)C)cn2cnnc2c1C
0.89

Query log10 IC50 on human TLR9 (Homo sapiens, UniProt Q9NR96) for CNCC(=O)N1CCC(Oc2ccc3[nH]c(-c4cc(C)nc(C)c4)c(C(C)C)c3c2)CC1 -0.52

====

# target of assay: human TLR7 (Homo sapiens)
# Sequence (Q9NYK1 27-1049): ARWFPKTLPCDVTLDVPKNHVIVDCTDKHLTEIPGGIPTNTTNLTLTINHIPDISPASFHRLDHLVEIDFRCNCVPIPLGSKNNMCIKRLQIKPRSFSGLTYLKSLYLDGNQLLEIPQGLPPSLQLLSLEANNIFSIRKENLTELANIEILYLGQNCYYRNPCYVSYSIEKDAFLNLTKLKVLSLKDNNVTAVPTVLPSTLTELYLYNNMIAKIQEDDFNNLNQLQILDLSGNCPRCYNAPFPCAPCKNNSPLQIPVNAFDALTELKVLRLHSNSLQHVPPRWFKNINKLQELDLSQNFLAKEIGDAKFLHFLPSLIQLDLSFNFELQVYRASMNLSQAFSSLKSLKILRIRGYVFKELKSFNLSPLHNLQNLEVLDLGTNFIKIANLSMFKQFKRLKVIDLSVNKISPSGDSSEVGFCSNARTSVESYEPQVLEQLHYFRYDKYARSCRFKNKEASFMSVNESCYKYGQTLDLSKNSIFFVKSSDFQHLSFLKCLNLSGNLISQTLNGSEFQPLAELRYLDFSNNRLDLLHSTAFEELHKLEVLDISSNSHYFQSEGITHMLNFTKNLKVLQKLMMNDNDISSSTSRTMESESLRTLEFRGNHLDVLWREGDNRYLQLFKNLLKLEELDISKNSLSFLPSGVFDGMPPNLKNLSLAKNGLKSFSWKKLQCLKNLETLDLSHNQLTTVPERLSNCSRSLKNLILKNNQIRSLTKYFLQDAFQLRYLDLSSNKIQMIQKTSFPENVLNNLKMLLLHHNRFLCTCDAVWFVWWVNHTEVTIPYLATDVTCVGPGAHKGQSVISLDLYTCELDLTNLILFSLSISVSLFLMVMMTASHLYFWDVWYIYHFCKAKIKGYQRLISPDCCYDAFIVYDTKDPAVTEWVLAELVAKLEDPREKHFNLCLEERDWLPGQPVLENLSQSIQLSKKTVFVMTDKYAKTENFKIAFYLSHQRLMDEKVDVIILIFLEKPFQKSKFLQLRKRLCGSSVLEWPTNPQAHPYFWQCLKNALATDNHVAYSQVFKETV
# test details: TLR7 inhibition reporter assay (HEK-Blue SEAP)
# assay setup: HEK-Blue cells overexpressing human TLR7, stimulated with gardiquimod 7.5 μM, 22 hour incubation
readout label: pIC50
Entry type: numeric. Quantity: pIC50, the -log10 of concentration in molar units.

CCc1c(-c2ccnc(C)c2)[nH]c2ccc(OCC3CCNCC3)cc12
7.66
COc1ccc(-c2[nH]c3ccc(OCC(=O)NCC(C)(C)O)cc3c2C(C)C)cc1OC
6.52
COc1ccc(-c2[nH]c3ccc(OCC(=O)NC4CCNCC4)cc3c2C(C)C)cc1OC
6.90
Cc1c(-c2[nH]c3ccc(OC4CCN(C(=O)CN(C)C)CC4)cc3c2C(C)C)cn(C)c(=O)c1C
8.11
Cc1c(-c2[nH]c3ccc(OC4CCN(CC(=O)N(C)C)CC4)cc3c2C(C)C)cn2cnnc2c1C
8.08
Cc1cc(-c2[nH]c3ccc(OC4CCN(CC(C)(C)O)CC4)cc3c2C(C)C)cc(C)n1
8.44

Query compound follows.
Suppose we examine the compound CNC(=O)CN1CCC(Oc2ccc3[nH]c(-c4cn(C)c(=O)c(C)c4C)c(C(C)C)c3c2)CC1 ; what pIC50 value has been reported? 7.40
